Target: T1, ARHGAP21, Q5T5U3
T1 sequence (Q5T5U3 45-169, limits assumed, looked up): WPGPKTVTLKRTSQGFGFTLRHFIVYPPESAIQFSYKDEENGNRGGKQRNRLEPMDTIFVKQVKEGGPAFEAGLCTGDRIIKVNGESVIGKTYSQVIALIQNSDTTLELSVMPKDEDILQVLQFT
Test: holdup assay
Set-up: key: below the threshold = too weak to quantify, mostly under pKd 3.1 to 4
Settings: plain residues with an end cap or a label only (N-terminal biotin on a linker: ado-ado)
quantity: pKd

1) AKPSRISTVV [IQSEC2, Q5JU85]; below the threshold
2) TKGPRGPTRV [SAPCD1, Q5SSQ6]; below the threshold
3) PDGQCTVTEV [RNF146, Q9NTX7]; below the threshold
